system: Diaphorase
experimental-details: peptide array, 10 uM labeled diaphorase, with FAD
reported-endpoint: fluorescence

The following binders have reported results that may help.
| binder | fluorescence |
| --- | --- |
| RWKYQKFNGGSG | 46200 |
| PRYSGQYGGSG | 45200 |
| KHSFQKELGGSG | 300 |

1. NVSDLSQFYLSGSG
2. LDRLGEYQFSGSG
3. KNRPYNKDLEDGSG
Ascending sort, fluorescence. Use the labels to give the requested order.
3, 2, 1
